test system: HEK-CMV-Luc2-Hygro cells; assay: High-throughput genome-wide siRNA screen and validation screen for luciferase expression; type: cell-based, human; conditions: Table 4; primary screen, 72 h, negative control = 100%
Please go through the items and note down their per cell luciferase yield (%).
Numbers only, in %.

173 (GACUAUUGAUACCAAAACATT; chemistry not given here; listed as Homo sapiens) [compound 173] ... 209.398
207 (CGCUCACCAACAGCAGAAATT; chemistry not given here; listed as Homo sapiens) [compound 207] ... 146.756
195 (UGAAGAUAAUCGAGAAAUATT; chemistry not given here; listed as Homo sapiens) [compound 195] ... 258.104
160 (GGACCAAGCCCUAAAGGAATT; chemistry not given here; listed as Homo sapiens) [compound 160] ... 220.902
178 (AAAUGCAACCCAAAAAGUATT; chemistry not given here; listed as Homo sapiens) [compound 178] ... 200.322

For every item below, please supply its per cell luciferase yield (%).
1. 177 (CUCUUAUGGUAACCAAUGATT; chemistry not given here; listed as Homo sapiens) [compound 177]
2. 162 (CGAUAUGCUUUUCUACGUUTT; chemistry not given here; listed as Homo sapiens) [compound 162]

1: 160.246; 2: 235.013

---

test system: HEK-CMV-Luc2-Hygro cells; assay: High-throughput genome-wide siRNA screen and validation screen for luciferase expression; format: cell-based, human; conditions: Table 4; primary screen, 72 h, negative control = 100%
Checkbox rule: per cell luciferase yield (%) lower than 200% = t; per cell luciferase yield (%) not lower than 200% = f.

198 (GCCUAGGAGUUAUCCUCUATT; chemistry not given here; listed as Homo sapiens) [compound 198] ... t
117 (GGCUGUACAUAGUCCUUUUTT; chemistry not given here; listed as Homo sapiens) [compound 117] ... f
141 (AGAGGACCCAGAUUGUCUATT; chemistry not given here; listed as Homo sapiens) [compound 141] ... t
184 (GCCUGAAUCUUGUCCCAAATT; chemistry not given here; listed as Homo sapiens) [compound 184] ... f

Lab note: confirm whether the reported per cell luciferase yield (%) for this substance is below 200%, equality not counting. substance: 100 (GAACGAGUACAGCAAUAUATT; chemistry not given here; listed as Homo sapiens) [compound 100] t

Lab note: confirm whether the reported per cell luciferase yield (%) for this substance is below 200%, equality not counting. substance: 208 (CUUUUAAUGUUAAACUACATT; chemistry not given here; listed as Homo sapiens) [compound 208] t

---

system: HEK-CMV-Luc2-Hygro cells; assay: High-throughput genome-wide siRNA screen and validation screen for luciferase expression; assay type: cell-based, human; conditions: Table 4; primary screen, 72 h, negative control = 100%
Please go through the items and note down their Viable cell density (%).
One number for each entry, in %.

Example cases with answers are listed next.
143 (GCAAAGAUAGCGAGAAAUATT; chemistry not given here; listed as Homo sapiens) [compound 143] ... 75.599
95 (CAAGUCACCUGUUACCUCATT; chemistry not given here; listed as Homo sapiens) [compound 95] ... 88.955
212 (GAGCAGAGAUCAUAACCAATT; chemistry not given here; listed as Homo sapiens) [compound 212] ... 108.211

From here, focus on the item given below.
Name the recorded Viable cell density (%) of the item 103 (GACAUUGGAUCAUACUAAATT; chemistry not given here; listed as Homo sapiens) [compound 103] in your answer. 88.908
